These data points were gathered from ChEMBL document CHEMBL3745687.

System: HL-60
Experiment: Ratio of 1alpha,25-dihydroxyvitamin D3 ED50 to compound ED50 for induction of human HL60 promyelocytes differentiation to monocytes after 4 days by NBT reduction assay
Type: functional
Outcome label depends on Ratio ED50 relative to 0.7: at/above gives true, below gives false.

Some solved cases for reference:
- COMPOUND: "C=C1[C@H](O)CC(=C/C=C2\\CCC[C@]3(C)[C@@H]([C@@H](C)CCCC(C)(C)O)CC[C@@H]23)C[C@H]1O [DP001]"
  ANSWER_LABEL: "true"
- COMPOUND: "C=C1/C(=C\\C=C2/CCC[C@]3(C)[C@@H]([C@@H](C)CCCC(C)(C)O)CC[C@@H]23)C[C@@H](O)C(=C)[C@@H]1O"
  ANSWER_LABEL: "true"
- COMPOUND: "C=C1/C(=C/C=C2\\CCC[C@]3(C)[C@@H]([C@H](C)CCCC(C)(C)O)CC[C@@H]23)C[C@@H](O)C(=C)[C@@H]1O"
  ANSWER_LABEL: "false"
- COMPOUND: "C=C1/C(=C/C=C2\\CCC[C@]3(C)[C@@H]([C@@H](C)CCCC(C)(C)O)CC[C@@H]23)C[C@@H](O)C(=C)[C@@H]1O"
  ANSWER_LABEL: "true"

Now, please, on to the next compound.
Hello, I need to know if C=C1/C(=C\C=C2/CCC[C@]3(C)[C@@H]([C@H](C)CCCC(C)C)CC[C@@H]23)C[C@@H](O)C(=C)[C@@H]1O has measured Ratio ED50 not below 0.7. Thanks!
false

====

Provide the reported Ratio of each item.
Test system: Rattus norvegicus
Test: Effect on intestinal calcium transport in weanling Sprague-Dawley rat assessed as increase in ratio of serosal to mucosal calcium level at 780 pmol/day administered as 4 consecutive daily doses measured 24 hrs after last dose relative to control
Format: functional
One number for each entry.

Answered cases to consult:
- COMPOUND_STRUCTURE: "C=C1/C(=C\\C=C2/CCC[C@]3(C)[C@@H]([C@H](C)CCCC(C)C)CC[C@@H]23)C[C@@H](O)C(=C)[C@@H]1O"
  Ratio: 5.8
- COMPOUND_STRUCTURE: "C=C1/C(=C\\C=C2/CCC[C@]3(C)[C@@H]([C@H](C)CCCC(C)(C)O)CC[C@@H]23)C[C@@H](O)C[C@@H]1O"
  Ratio: 1.9

Now consider the entry below.
Ratio of C=C1/C(=C\C=C2/CCC[C@]3(C)[C@@H]([C@H](C)CCCC(C)(C)O)CC[C@@H]23)C[C@@H](O)C(=C)[C@@H]1O on Rattus norvegicus?
5.2

====

Tested on: Rattus norvegicus
Assay: Effect on intestinal calcium transport in weanling Sprague-Dawley rat assessed as increase in ratio of serosal to mucosal calcium level at 780 pmol/day administered as 4 consecutive daily doses measured 24 hrs after last dose relative to control
Assay type: functional
QUANTITY: Ratio
Numbers only.

- COMPOUND_STRUCTURE: "C=C1/C(=C/C=C2\\CCC[C@]3(C)[C@@H]([C@@H](C)CCCC(C)(C)O)CC[C@@H]23)C[C@@H](O)C(=C)[C@@H]1O"
  TGT: "Rattus norvegicus"
  DATA_VALUE: 4.5
- COMPOUND_STRUCTURE: "C=C1/C(=C\\C=C2/CCC[C@]3(C)[C@@H]([C@@H](C)CCCC(C)(C)O)CC[C@@H]23)C[C@@H](O)C(=C)[C@@H]1O"
  TGT: "Rattus norvegicus"
  DATA_VALUE: 9.3

Here's the next entry for you.
Query (molecule): C=C1/C(=C/C=C2\CCC[C@]3(C)[C@@H]([C@H](C)CCCC(C)(C)O)CC[C@@H]23)C[C@@H](O)C(=C)[C@@H]1O ; field requested: Ratio
1.2

====

Target: Vitamin D3 receptor (Rattus norvegicus)
Test: Ratio of 1alpha,25-dihydroxyvitamin D3 Ki to compound Ki for full length recombinant rat vitamin D receptor by scintillation counting analysis
Mark 1 only for Ratio Ki values smaller than 1; exact matches and larger values are -1.

- COMPOUND_STRUCTURE: "C=C1/C(=C\\C=C2/CCC[C@]3(C)[C@@H]([C@H](C)CCCC(C)C)CC[C@@H]23)C[C@@H](O)C(=C)[C@@H]1O"
  ANSWER_LABEL: 1
- COMPOUND_STRUCTURE: "C=C1/C(=C/C=C2\\CCC[C@]3(C)[C@@H]([C@H](C)CCCC(C)(C)O)CC[C@@H]23)C[C@@H](O)C(=C)[C@@H]1O"
  ANSWER_LABEL: -1
- COMPOUND_STRUCTURE: "C=C1/C(=C\\C=C2/CCC[C@]3(C)[C@@H]([C@H](C)CCCC(C)(C)O)CC[C@@H]23)C[C@@H](O)C(=C)[C@@H]1O"
  ANSWER_LABEL: -1
- COMPOUND_STRUCTURE: "C=C1/C(=C\\C=C2/CCC[C@]3(C)[C@@H]([C@@H](C)CCCC(C)(C)O)CC[C@@H]23)C[C@@H](O)C(=C)[C@@H]1O"
  ANSWER_LABEL: -1
- COMPOUND_STRUCTURE: "C=C1/C(=C\\C=C2/CCC[C@]3(C)[C@@H]([C@@H](C)CCCC(C)C)CC[C@@H]23)C[C@@H](O)C(=C)[C@@H]1O"
  ANSWER_LABEL: 1

Consider the compound C=C1/C(=C/C=C2\CCC[C@]3(C)[C@@H]([C@@H](C)CCCC(C)(C)O)CC[C@@H]23)C[C@@H](O)C(=C)[C@@H]1O . Is its Ratio Ki strictly less than 1?
-1

====

Assign Activity to each entry below.
Tested on: Rattus norvegicus
Experiment: Effect on bone calcium mobilization in weanling Sprague-Dawley rat assessed as serum calcium level at 7020 pmol/day administered as 4 consecutive daily doses measured 24 hrs after last dose relative to control
Type: functional
One number for each entry, in mg/dL.

- COMPOUND_STRUCTURE: "C=C1/C(=C\\C=C2/CCC[C@]3(C)[C@@H]([C@@H](C)CCCC(C)C)CC[C@@H]23)C[C@@H](O)C(=C)[C@@H]1O"
  UNIT_ANNOTATION: "mg/dL"
  Activity: 4.8
- COMPOUND_STRUCTURE: "C=C1/C(=C\\C=C2/CCC[C@]3(C)[C@@H]([C@@H](C)CCCC(C)(C)O)CC[C@@H]23)C[C@@H](O)C(=C)[C@@H]1O"
  UNIT_ANNOTATION: "mg/dL"
  Activity: 6
- COMPOUND_STRUCTURE: "C=C1/C(=C\\C=C2/CCC[C@]3(C)[C@@H]([C@H](C)CCCC(C)C)CC[C@@H]23)C[C@@H](O)C(=C)[C@@H]1O"
  UNIT_ANNOTATION: "mg/dL"
  Activity: 6
- COMPOUND_STRUCTURE: "C=C1/C(=C/C=C2\\CCC[C@]3(C)[C@@H]([C@H](C)CCCC(C)(C)O)CC[C@@H]23)C[C@@H](O)C(=C)[C@@H]1O"
  UNIT_ANNOTATION: "mg/dL"
  Activity: 2.2

Record lookup: for Rattus norvegicus, what Activity belongs to C=C1/C(=C\C=C2/CCC[C@]3(C)[C@@H]([C@H](C)CCCC(C)(C)O)CC[C@@H]23)C[C@@H](O)C(=C)[C@@H]1O ?
7.3

====

Target: UniProtKB P13053
Experiment: Ratio of 1alpha,25-dihydroxyvitamin D3 ED50 to compound ED50 for VDR-mediated 24-hydroxylase gene expression in rat ROS 17/2.8 cells after 16 hrs by luciferase reprter assay
Format: cell-based
# cutoff 1 applies to Ratio ED50; >= gives t, < gives f

- COMPOUND: "C=C1/C(=C\\C=C2/CCC[C@]3(C)[C@@H]([C@@H](C)CCCC(C)(C)O)CC[C@@H]23)C[C@@H](O)C(=C)[C@@H]1O"
  ANSWER_LABEL: "t"

// inclusive: Ratio ED50 at least 1? input: C=C1[C@H](O)CC(=C/C=C2\CCC[C@]3(C)[C@@H]([C@@H](C)CCCC(C)(C)O)CC[C@@H]23)C[C@H]1O [DP001]
t

Would you mind doing C=C1/C(=C\C=C2/CCC[C@]3(C)[C@@H]([C@@H](C)CCCC(C)C)CC[C@@H]23)C[C@@H](O)C(=C)[C@@H]1O as well?
f

And for C=C1/C(=C/C=C2\CCC[C@]3(C)[C@@H]([C@@H](C)CCCC(C)(C)O)CC[C@@H]23)C[C@@H](O)C(=C)[C@@H]1O ?
t

Next entry: C=C1/C(=C\C=C2/CCC[C@]3(C)[C@@H]([C@H](C)CCCC(C)C)CC[C@@H]23)C[C@@H](O)C(=C)[C@@H]1O
f

====

Target: Vitamin D3 receptor (Rattus norvegicus) (UniProt P13053)
Sequence (P13053 whole entry): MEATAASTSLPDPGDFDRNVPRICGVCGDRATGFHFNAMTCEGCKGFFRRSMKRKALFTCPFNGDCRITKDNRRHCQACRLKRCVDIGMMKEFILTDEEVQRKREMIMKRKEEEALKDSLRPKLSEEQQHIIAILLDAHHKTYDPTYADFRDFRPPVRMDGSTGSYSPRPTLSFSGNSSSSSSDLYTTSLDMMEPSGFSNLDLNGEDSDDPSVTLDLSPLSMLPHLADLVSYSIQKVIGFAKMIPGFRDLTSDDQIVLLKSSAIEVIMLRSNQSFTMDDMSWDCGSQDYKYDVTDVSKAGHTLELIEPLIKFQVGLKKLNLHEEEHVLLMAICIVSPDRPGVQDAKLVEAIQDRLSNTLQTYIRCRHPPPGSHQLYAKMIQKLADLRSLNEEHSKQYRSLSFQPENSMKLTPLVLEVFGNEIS
Test: Induction of VDR transcriptional activity assessed as activation of 24-hydroxylase gene expression in rat ROS 17/2.8 cells after 16 hrs by luciferase reprter assay
Assay type: cell-based
The source made the active and inactive calls. The calls are words filed in the database; no cut-off is given here.
QUANTITY: Activity

Solved entries (count: 4):
- COMPOUND_STRUCTURE: "C=C1/C(=C\\C=C2/CCC[C@]3(C)[C@@H]([C@H](C)CCCC(C)C)CC[C@@H]23)C[C@@H](O)C(=C)[C@@H]1O"
  TGT: "Vitamin D3 receptor (Rattus norvegicus) (UniProt P13053)"
  Activity: "Dose-dependent effect"
- COMPOUND_STRUCTURE: "C=C1/C(=C/C=C2\\CCC[C@]3(C)[C@@H]([C@@H](C)CCCC(C)(C)O)CC[C@@H]23)C[C@@H](O)C(=C)[C@@H]1O"
  TGT: "Vitamin D3 receptor (Rattus norvegicus) (UniProt P13053)"
  Activity: "Active"
- COMPOUND_STRUCTURE: "C=C1/C(=C\\C=C2/CCC[C@]3(C)[C@@H]([C@@H](C)CCCC(C)C)CC[C@@H]23)C[C@@H](O)C(=C)[C@@H]1O"
  TGT: "Vitamin D3 receptor (Rattus norvegicus) (UniProt P13053)"
  Activity: "Dose-dependent effect"
- COMPOUND_STRUCTURE: "C=C1/C(=C\\C=C2/CCC[C@]3(C)[C@@H]([C@@H](C)CCCC(C)(C)O)CC[C@@H]23)C[C@@H](O)C(=C)[C@@H]1O"
  TGT: "Vitamin D3 receptor (Rattus norvegicus) (UniProt P13053)"
  Activity: "Active"

Proceed to the following item.
Look up Activity with Vitamin D3 receptor (Rattus norvegicus) (UniProt P13053) for this compound: C=C1/C(=C\C=C2/CCC[C@]3(C)[C@@H]([C@H](C)CCCC(C)(C)O)CC[C@@H]23)C[C@@H](O)C[C@@H]1O
Active
